Molecular target: T1, CD3 on primary human pan T cells (human, UniProt P07766 23-207)
T1 construct: on cells it stands in the TCR/CD3 complex; also called Pan T-cells (CD3-positive); endogenous CD3
T1 sequence (P07766 23-207 limits assumed): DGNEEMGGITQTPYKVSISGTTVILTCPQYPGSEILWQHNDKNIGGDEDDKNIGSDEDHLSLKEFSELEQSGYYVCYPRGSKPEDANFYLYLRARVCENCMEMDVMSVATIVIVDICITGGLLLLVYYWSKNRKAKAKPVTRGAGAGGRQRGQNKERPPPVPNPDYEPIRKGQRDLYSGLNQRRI
Test: flow cytometry, pan T-cells
test.readout: % Binding retained on T-cells, 65° C.

Query: Item under review: CD3B2041 (scFv) scFv: QVQLVQSGAEVKKPGSSVKVSCKASGYTFTRSTMHWVRQAPGQGLEWIGYINPSSAYTNYNQKFQGRVTLTADKSTSTAYMELSSLRSEDTAVYYCASPQVHYDYNGFPYWGQGTLVTVSSGGSEGKSSGSGSESKSTGGSEIVLTQSPATLSASPGERVTLSCSASSSVSYMNWYQQKPGTAPRRWIYDSSKLASGVPARFSGSGSGRDYTLTISSLEPEDFAVYYCQQWSRNPPTFGGGTKVEIK . Reported % Binding retained on T-cells, 65° C.?
Result: 0.447 fraction
